Reference for the values: a melting point compilation (Tetko et al.)

Decide using melting point alone. Strictly below 80 °C: Y. Equal to or above 80 °C: N.

{"columns": ["compound", "assigned class"],
 "data": [
  ["OC(c1ccccc1)C(O)(c1ccccc1)c1ccccc1 (stereo not drawn)", "N"],
  ["O=C(O)c1ccc(Cl)cc1Cl", "N"],
  ["N#Cc1cc(F)ccc1[N+](=O)[O-]", "N"],
  ["Cc1cccc(Cl)c1I", "Y"],
  ["CNc1ccc2cc3ccc4c(c3nc2c1CO)COCN4", "N"],
  ["Cc1cc(C)cc(C2Oc3c(Cl)c(Cl)c(Cl)c(Cl)c3O2)c1", "N"],
  ["C#CC1(O)CCC2C3CCC4CCCCC4(C)C3CCC21C (stereo not drawn)", "N"],
  ["Clc1cc(Cl)c(-c2c(Cl)cc(Cl)c(Cl)c2Cl)cc1Cl", "N"],
  ["CCC(Cl)C(C)Cl (stereo not drawn)", "Y"],
  ["CN(C)c1ccc(N=c2cc(-c3ccccc3)sc(-c3ccccc3)c2)cc1", "N"],
  ["CC(C)C12CCC(C)(CC1)O2", "Y"],
  ["CC(C)(S)C(N)C(=O)O (stereo not drawn)", "N"],
  ["CCSCC(=O)O", "Y"],
  ["CC(=O)CO", "Y"],
  ["OC1CCCCCC1", "Y"],
  ["Nc1ccc(C(O)(C(F)(F)F)C(F)(F)F)cc1", "N"],
  ["CCCC(=O)c1cc(O)c(O)cc1O", "N"],
  ["CC(=O)Nc1cc(Cl)c(F)cc1[N+](=O)[O-]", "N"],
  ["O=C(Nc1cccc([N+](=O)[O-])c1)Nc1cccc([N+](=O)[O-])c1", "N"],
  ["COc1cc2c(cc1C(C)C)C(C(=O)O)C2 (stereo not drawn)", "N"],
  ["Cc1cc(O)c(C(=O)O)c(O)c1", "N"],
  ["COC(=O)c1ccncc1", "Y"],
  ["Nc1n[nH]c(S)n1", "N"],
  ["N#CC1=C(C#N)C(=O)C(NCCCc2ccccc2)=C(Cl)C1=O", "N"],
  ["O=C(Cc1ccccc1)SSC(=O)Cc1ccccc1", "Y"],
  ["CC(C)Nc1nc(Cl)nc(NC2CC2)n1", "N"],
  ["COc1ccccc1C(=S)N1CCOCC1", "N"],
  ["CC1=C[C@H](O)[C@H]2C[C@@H]1C2(C)C", "Y"],
  ["Nc1c(I)cc(I)c(C(=O)N(CCC(=O)O)c2ccccc2)c1I", "N"],
  ["Oc1c(F)c(F)cc(F)c1F", "Y"]
]}

###

Catalogue of melting point readings, one per entry.
recorded endpoint: melting point (°C)

{"columns": ["compound", "recorded endpoint", "reported value"],
 "data": [
  ["CN(C)C1=C(C=C(c2ccc(F)cc2)c2ccc(F)cc2)C(=O)N(c2ccccc2)C1=O", "melting point", 157],
  ["COc1cc(C=Cc2cc(/C=C/c3ccc(O)c(OC)c3)c([N+](=O)[O-])cc2[N+](=O)[O-])ccc1O", "melting point", 251],
  ["CC(=O)Oc1cc(C(F)(F)F)ccc1C(=O)O", "melting point", 121],
  ["CSc1n[nH]c(N)c1C(N)=O", "melting point", 176],
  ["O=C(C=Cc1ccc(OCCCl)cc1)c1ccc(OCCCl)cc1", "melting point", 83],
  ["Cc1oc(C(C)(C)C)cc1C(=O)O", "melting point", 92],
  ["COC1=CC(=O)NC1", "melting point", 132],
  ["COc1ccc2c(c1O)CN1CCC(=O)CC1C2O (stereo unspecified)", "melting point", 157]
]}

###

Rule: melting point under 100 °C gives criterion not met, otherwise criterion met.

{"columns": ["structure string", "assigned class"],
 "data": [
  ["Cc1c(NC=C2C(=O)NN=C2c2c(O)c3ccccc3n(C)c2=O)c(=O)n(-c2ccccc2)n1C", "criterion met"],
  ["COCCCn1c(C(=O)O)cc2c(=O)n(C)c(=O)n(C)c21", "criterion met"],
  ["Clc1cc(Cl)c2ccccc2n1", "criterion not met"],
  ["Nc1ccc([N+](=O)[O-])cc1C(F)(F)F", "criterion not met"],
  ["OCCC1CCNCC1", "criterion met"],
  ["Cc1cc(O)c2ccccc2c1O", "criterion met"]
]}

###

Catalogue of melting point readings, one per entry.

{"columns": ["compound", "unit annotation", "melting point"],
 "data": [
  ["Cc1ccnc(Cl)c1[N+](=O)[O-]", "°C", 53],
  ["CC(C)OC(=O)C1(S(=O)(=O)c2ccc([N+](=O)[O-])cc2)CCCCC1", "°C", 110],
  ["Ic1ccc(OCc2ccccc2)cc1", "°C", 62],
  ["C[C@]12CCC(=O)C=C1C(=O)C[C@@H]1[C@@H]2CC[C@]2(C)C(=O)CC[C@@H]12", "°C", 222],
  ["N#Cc1c(-c2ccc(F)cc2)c(C#N)c(=O)n(N)c1N", "°C", 304],
  ["CCCCOCCOP(=O)(OCCOCCCC)OCCOCCCC", "°C", -70],
  ["CC(=O)N(CC(O)CO)c1c(I)c(C(=O)NCC(O)CO)c(I)c(C(=O)NCC(O)CO)c1I (stereo unspecified)", "°C", 177]
]}

###

Catalogue of melting point readings, one per entry.
recorded endpoint: melting point (°C)

{"columns": ["molecule", "reported value"],
 "data": [
  ["CC(C)CC1Nc2cc(Cl)c(S(N)(=O)=O)cc2S(=O)(=O)N1 (stereo not given)", 222],
  ["Cc1cccc(OCC(O)CNC(C)C)c1 (stereo not given)", 76],
  ["CCCCCCCCC=CCCCCCCCCO", 6],
  ["NC1(C(=O)O)CC1", 257],
  ["Cc1cc2ccccc2cc1CCl", 65],
  ["O=[N+]([O-])c1ccc(N=Nc2ccc(Nc3ccccc3)cc2)cc1", 160],
  ["COc1ccc(C(=O)OCCOc2ccc(C=CC(=O)c3ccccc3)cc2)cc1", 113],
  ["CCCCCCC(O)CCCCC (stereo not given)", 30],
  ["Cc1ccc(S(=O)(=O)N(Cl)Cl)cc1", 83],
  ["Cc1cc(Br)cnc1NC(=O)C(C)(C)C", 127],
  ["CCCCCCCCCCCCCCCCCC(=O)OCC(COC(=O)CCCCCCCCCCCCCCCCC)OC(=O)CCCCCCCCCCCCCCCCC", 55],
  ["CCCCCCCCCCCCCCCCCCOO", 49.5],
  ["O=C(O)C1=Cc2cc(Cl)ccc2OC1", 245],
  ["O=C(Cc1ccc(/N=C/c2ccccc2)cc1)c1ccc(/N=C/c2ccccc2)cc1", 181],
  ["N#CC12CCN(CC1)CC2", 133],
  ["C=C(Br)CC(NC(=O)OCC1c2ccccc2-c2ccccc21)C(=O)O (stereo not given)", 120],
  ["c1ccc(-c2nc3ccccc3[nH]2)nc1", 223],
  ["FC(F)(F)c1cc(-c2n[nH]c(=S)[nH]2)cc(C(F)(F)F)c1", 280],
  ["O=C(c1ccccc1)C1SC(=S)N(c2ccccc2)C1=O (stereo not given)", 159]
]}

###

Catalogue of melting point readings, one per entry.

{"columns": ["compound", "melting point / °C"],
 "data": [
  ["CC(=O)C(CC(=O)c1ccccc1)C(=O)c1ccccc1 (stereo unspecified)", 90],
  ["CCOP(=S)(OCC)SCSP(=S)(OCC)OCC", -12],
  ["CCOC(=O)c1sc2nccnc2c1N", 120],
  ["COc1c(C)c(C)c(OC)c2c1CC2=O", 109],
  ["N#Cc1ccc2c(c1)N(CCCN1CCC(O)CC1)c1ccccc1S2", 116]
]}

###

Catalogue of melting point readings, one per entry.

{"columns": ["compound", "unit annotation", "melting point"],
 "data": [
  ["O=c1[nH]c(=O)n(C2CC(O)C(CO)O2)cc1C(F)(F)F (stereo unspecified)", "°C", 188],
  ["CCOC(=O)C1=C(C)NC(=O)NC1c1cccc([N+](=O)[O-])c1 (stereo unspecified)", "°C", 228],
  ["COc1cc(C)c(Cl)cc1S(=O)(=O)Cl", "°C", 127],
  ["Cc1ccc(O)c(N)c1", "°C", 136],
  ["COc1ccc2c(=O)n3ccccc3cc2c1", "°C", 130],
  ["O=C(OCCOc1cc(OCCOC(=O)c2ccccc2)c([N+](=O)[O-])cc1[N+](=O)[O-])c1ccccc1", "°C", 165],
  ["O=C(C1=NOC2C(=O)N(c3ccccc3[N+](=O)[O-])C(=O)C12)c1ccc2ccccc2c1 (stereo unspecified)", "°C", 176],
  ["CS(=O)(=O)CC#N", "°C", 84],
  ["COC(=O)c1ccc(Cl)nc1", "°C", 86],
  ["C=COCCCCCCCCCC", "°C", -41],
  ["CC1=Nc2ccccc2N=C(C)C1", "°C", 193],
  ["NS(=O)(=O)c1ccc(F)c(Cl)c1", "°C", 109],
  ["COC(=O)C1(C(=O)OC)Cc2cc(OC)ccc2C(=O)O1", "°C", 134],
  ["CC(C)(C)CCO", "°C", -60],
  ["CCc1ccccc1[N+](=O)[O-]", "°C", -12.3],
  ["CCCCC(CC)COC(=O)CCCCCCCCC(=O)OCC(CC)CCCC (stereo unspecified)", "°C", -48]
]}
